experiment: Noncompartmental pharmacokinetic analysis of whole-blood sirolimus
Format: in vivo, human
measurement-context: human, whole blood, oral, 2.5 mg/m^2/day, Mean t1/2, patients age ≤12 years
observable: Half-life

molecule CO[C@H]1C[C@@H]2CC[C@@H](C)[C@@](O)(O2)C(=O)C(=O)N2CCCC[C@H]2C(=O)O[C@H]([C@H](C)C[C@@H]2CC[C@@H](O)[C@H](OC)C2)CC(=O)[C@H](C)/C=C(\C)[C@@H](O)[C@@H](OC)C(=O)[C@H](C)C[C@H](C)/C=C/C=C/C=C/1C [sirolimus, Sirolimus] , Half-life observed: 21.8 h

* * *

experiment: Noncompartmental pharmacokinetic analysis of whole-blood sirolimus
Assay type: in vivo, human
measurement-context: human, whole blood, oral, 2.5 mg/m^2/day
observable: CL/F (mL/min/kg)
Provide the reading as a plain figure in mL/min/kg.

Looking up CO[C@H]1C[C@@H]2CC[C@@H](C)[C@@](O)(O2)C(=O)C(=O)N2CCCC[C@H]2C(=O)O[C@H]([C@H](C)C[C@@H]2CC[C@@H](O)[C@H](OC)C2)CC(=O)[C@H](C)/C=C(\C)[C@@H](O)[C@@H](OC)C(=O)[C@H](C)C[C@H](C)/C=C/C=C/C=C/1C , I see its CL/F listed as 3.17
